A collection of compounds and their measured melting point
Quantity Measured: melting point (°C)

>>> value("O=C1O[C@@H](Cn2ccnn2)CN1c1ccc(-c2ccc(CN3CCOCC3)nc2)c(F)c1 [Example 9]")
175
>>> value("C[C@H](O)c1ccc(-c2ccc(N3C[C@H](Cn4ccnn4)OC3=O)cc2F)cn1 [Example 11]")
183
>>> value("CC(C)(O)c1ccc(-c2ccc(N3C[C@H](Cn4ccnn4)OC3=O)cc2F)cn1 [Example 5]")
180
>>> value("CN(Cc1ccc(-c2ccc(N3C[C@H](Cn4ccnn4)OC3=O)cc2F)cn1)CC(O)CO (some centres unmarked) [Example 6]")
123
>>> value("O=C1O[C@@H](Cn2ccnn2)CN1c1ccc(-c2ccc(CO)nc2)c(F)c1 [Ref Example 3]")
177
>>> value("O=C1O[C@@H](Cn2ccnn2)CN1c1ccc(-c2ccc(C(O)CO)nc2)c(F)c1 (some centres unmarked) [Example 4]")
175
>>> value("C[C@@H](O)c1ccc(-c2ccc(N3C[C@H](Cn4ccnn4)OC3=O)cc2F)cn1 [Example 10]")
190
>>> value("CN(CCO)Cc1ccc(-c2ccc(N3C[C@H](Cn4ccnn4)OC3=O)cc2F)cn1 [Example 7]")
137
>>> value("CN(C)Cc1ccc(-c2ccc(N3C[C@H](Cn4ccnn4)OC3=O)cc2F)cn1 [Example 8]")
160

* * *

Protein target, amino acids: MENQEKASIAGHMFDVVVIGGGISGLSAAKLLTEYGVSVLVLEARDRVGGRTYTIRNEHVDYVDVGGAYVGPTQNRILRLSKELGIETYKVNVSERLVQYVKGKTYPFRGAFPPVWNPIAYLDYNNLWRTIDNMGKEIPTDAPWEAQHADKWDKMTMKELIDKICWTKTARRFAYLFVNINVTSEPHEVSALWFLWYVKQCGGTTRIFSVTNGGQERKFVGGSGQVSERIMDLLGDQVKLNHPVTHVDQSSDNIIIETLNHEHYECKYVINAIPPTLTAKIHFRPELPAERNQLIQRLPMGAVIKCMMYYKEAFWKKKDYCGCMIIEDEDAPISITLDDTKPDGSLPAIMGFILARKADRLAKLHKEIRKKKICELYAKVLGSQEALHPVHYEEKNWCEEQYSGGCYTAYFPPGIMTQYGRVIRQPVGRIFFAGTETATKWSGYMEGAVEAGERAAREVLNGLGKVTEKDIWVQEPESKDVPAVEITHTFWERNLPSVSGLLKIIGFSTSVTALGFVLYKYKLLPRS
Quantity Measured: Ki (µM)

>>> value("Cc1ccc(-c2ccc(N3C[C@H](Cn4ccnn4)OC3=O)cc2F)cn1 [Ref Example 2]")
0.6
>>> value("O=C1O[C@@H](Cn2ccnn2)CN1c1ccc(-c2ccc(C(O)CN3CCOCC3)nc2)c(F)c1 (stereo partly shown) [Example 1]")
94
>>> value("CN(C)Cc1ccc(-c2ccc(N3C[C@H](Cn4ccnn4)OC3=O)cc2F)cn1 [Example 8]")
15
>>> value("O=C1O[C@@H](Cn2ccnn2)CN1c1ccc(-c2ccc(CO)nc2)c(F)c1 [Ref Example 3]")
4.8
>>> value("Cc1cn(C[C@H]2CN(c3ccc(-c4ccc(C#N)nc4)c(F)c3)C(=O)O2)nn1 [Ref Example 7]")
3.65

* * *

A collection of compounds and their measured melting point
Structures can show the parent of a compound that is named as a salt.
Quantity Measured: melting point

>>> value("Cc1cnc(C)n1CC(O)c1ccc(-c2ccc(N3C[C@H](Cn4ccnn4)OC3=O)cc2F)cn1 (some centres unmarked)")
"195 to 200 °C"
>>> value("CC(=O)CC(O)c1ccc(-c2ccc(N3C[C@H](Cn4ccnn4)OC3=O)cc2F)cn1 (some centres unmarked)")
"130 to 135 °C"
>>> value("O=C(OCc1ccc(-c2ccc(N3C[C@H](Cn4ccnn4)OC3=O)cc2F)cn1)N1CCOCC1")
"131 to 133 °C"
>>> value("Cc1cn(C[C@H]2CN(c3ccc(-c4ccc(C#N)nc4)c(F)c3)C(=O)O2)nn1")
"210 to 212 °C"
>>> value("CN(C)CC(O)c1ccc(-c2ccc(N3C[C@H](Cn4ccnn4)OC3=O)cc2F)cn1 (some centres unmarked) (as salt: hydrochloride)")
"> 115 °C (dec.)"
>>> value("CC(C)NCC(O)c1ccc(-c2ccc(N3C[C@H](Cn4ccnn4)OC3=O)cc2F)cn1 (some centres unmarked) (as salt: hydrochloride)")
"> 170 °C (dec.)"
>>> value("O=C1O[C@@H](Cn2ccnn2)CN1c1ccc(-c2ccc(C(O)C3CC3)nc2)c(F)c1 (some centres unmarked)")
"160 to 163 °C"
>>> value("O=C1O[C@@H](Cn2ccnn2)CN1c1ccc(-c2ccc(C(O)CN3CCOCC3)nc2)c(F)c1 (some centres unmarked) (as salt: hydrochloride)")
"> 194 °C (dec.)"
